Reported switch fluorescence ratio values for a set of sequences
- Tested on: ATP;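 further: ATP exposure 15 min at 22 °C before imaging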
- protocol_text: switch fluorescence ratio, 500 uM ATP over buffer (Cy3 cluster intensity, sum of 5 cycles each) (fold (ratio)); higher = stronger signal-on switching upon ATP binding; sequences stand for … in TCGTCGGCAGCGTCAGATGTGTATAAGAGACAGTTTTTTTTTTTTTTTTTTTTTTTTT…TC
- protocol_conditions: aptamer strand: ATP DNA aptamer (quencher-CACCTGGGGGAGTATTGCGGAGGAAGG + anchor), 100 nM annealed; ATP concentration: 500 uM

>  <sequence_record>
CATCTCAGTG

>  <switch fluorescence ratio>
1.03

$$$$
>  <sequence_record>
TAGTTTAATT

>  <switch fluorescence ratio>
0.998

$$$$
>  <sequence_record>
AGGACGGGAT

>  <switch fluorescence ratio>
1.06

$$$$
